B1: glmS ribozyme (parent)
chain: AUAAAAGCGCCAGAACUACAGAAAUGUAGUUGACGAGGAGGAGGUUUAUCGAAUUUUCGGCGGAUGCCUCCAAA

# Variants of: B1
# TEST_SUMMARY: self-cleavage kobs at 2500 uM GlcN6P; higher = faster cleavage; RNA array
# EXPERIMENTAL_SETUP: with glucosamine-6-phosphate
This sample holds only a part of the variants without activity.
I would appreciate it if you labelled entries y when self-cleavage kobs at 2500 uM GlcN6P is 0.0003 s⁻¹ or higher, otherwise n.

sequence_content="AUAAAAGCGCCAGAACUACAGAAAUGUAGUUGACGAGGGGGAGGUUUAUCGAAUUUUCGGCGGAUGCCUCUAAA [A39G C71U]" label=y
sequence_content="AUAAAAGCGCCAGAACUACAGAAAUGUAGUUGACGAGGAGGAGUUUUAUCGUAUUUUCGGCCGAUGCCUCCAAA [G44U A52U G62C]" label=n
sequence_content="AUAAAAGCGCCAGAACUACAGAAAUGUAGUUGUCGAGGAGGAGGUUUAUCGAAUUUUCGACGGGUGCCUCCAAA [A33U G60A A64G]" label=n
sequence_content="AUAAAAGCGGCAGAACUACAGAAAUGUAGUUGCCGAAGAGGAGGUUUAUCGAAUUUUCUGCGGAUGCCUCCAAA [C10G A33C G37A G59U]" label=n
sequence_content="AUAAAAGCGCCAGAACUACAGAAAUGUAGUUGACGAGGAUGAGGUUUAUCGAAGUUUCGGCGGAUGCUUCCAAA [G40U U54G C68U]" label=n

Hi team, for AUAAAAGCGCCAGAACUACAGAAAUGUAAUUGACGAGGAGGAGGUUUAUCGAAUCUUCGGCGGAUGCCUCCAAA [G29A U55C] , is the recorded self-cleavage kobs at 2500 uM GlcN6P at or above 0.0003 s⁻¹? y

Hi team, for AUAAAAGCGCCAAAAAUACAGAAAUGUAGUUGACGAGGAGGAGGUUUAUCGAAUUUUCGGCGGAUGCCUCCAAA [G13A C16A] , is the recorded self-cleavage kobs at 2500 uM GlcN6P at or above 0.0003 s⁻¹? n

Hi team, for AUAAAAGCGCCAGAACUACAGAAAUGUAGUUGACGAGGAGGAGGAUUAUCGAAUUUUCGGCGGAUGCCUACAAA [U45A C70A] , is the recorded self-cleavage kobs at 2500 uM GlcN6P at or above 0.0003 s⁻¹? n
